Tested on: Plasmodium falciparum TM91C235
Test: In vitro antimalarial [3H]-hypoxanthine incorporation assay, TM91C235
Type: cell-based
Details: Plasmodium falciparum; P. falciparum TM91C235 (multiple drug resistant isolate), 72 hours exposure
Measured IC50 by item
Numbers only; they are read as µg/mL.

CC[C@H]1OC(=O)[C@H](C)[C@@H](O[C@H]2C[C@@](C)(OC)[C@@H](O)[C@H](C)O2)[C@H](C)[C@@H](O[C@@H]2O[C@H](C)C[C@H](N(C)C)[C@H]2O)[C@](C)(O)C[C@@H](C)CN(CCCNC(=S)Nc2ccc(F)c(F)c2F)[C@H](C)[C@@H](O)[C@]1(C)O    0.0723

Let us move to another entry and its IC50.
In plain terms, CC[C@H]1OC(=O)[C@H](C)[C@@H](O[C@H]2C[C@@](C)(OC)[C@@H](O)[C@H](C)O2)[C@H](C)[C@@H](O[C@@H]2O[C@H](C)C[C@H](N(C)C)[C@H]2O)[C@](C)(O)C[C@@H](C)CN(CCCN(CCC(N)=O)C(=S)NCCCc2ccccc2)[C@H](C)[C@@H](O)[C@]1(C)O has a documented IC50 of 0.0572

###

Test system: Plasmodium falciparum TM91C235
Test: In vitro antimalarial [3H]-hypoxanthine incorporation assay, TM91C235
Format: cell-based
Conditions: Plasmodium falciparum; P. falciparum TM91C235 (multiple drug resistant isolate), 72 hours exposure
outcome.measure: log10(IC50) (log10 of the value in µg/mL)
Short version: log10 scale, IC50, µg/mL.

Field: example entries. Status: answers known.
CC[C@H]1OC(=O)[C@H](C)[C@@H](O[C@H]2C[C@@](C)(OC)[C@@H](O)[C@H](C)O2)[C@H](C)[C@@H](O[C@@H]2O[C@H](C)C[C@H](N(C)C)[C@H]2O)[C@](C)(O)C[C@@H](C)CN(CCCNC(=S)Nc2c(F)cccc2F)[C@H](C)[C@@H](O)[C@]1(C)O [Example 104]    -0.74
CCOC(=O)CCN(CCCN1C[C@H](C)C[C@@](C)(O)[C@H](O[C@@H]2O[C@H](C)C[C@H](N(C)C)[C@H]2O)[C@@H](C)[C@H](O[C@H]2C[C@@](C)(OC)[C@@H](O)[C@H](C)O2)[C@@H](C)C(=O)O[C@H](CC)[C@@](C)(O)[C@H](O)[C@H]1C)C(=S)NCCc1ccccc1 [Example 160]    -1.17
CC[C@H]1OC(=O)[C@H](C)[C@@H](O[C@H]2C[C@@](C)(OC)[C@@H](O)[C@H](C)O2)[C@H](C)[C@@H](O[C@@H]2O[C@H](C)C[C@H](N(C)C)[C@H]2O)[C@](C)(O)C[C@@H](C)CN(CCCNC(=S)NC2CCCCCCCCCCC2)[C@H](C)[C@@H](O)[C@]1(C)O.O=CO [Example 116]    -0.83
CC[C@H]1OC(=O)[C@H](C)[C@@H](O[C@H]2C[C@@](C)(OC)[C@@H](O)[C@H](C)O2)[C@H](C)[C@@H](O[C@@H]2O[C@H](C)C[C@H](N(C)C)[C@H]2O)[C@](C)(O)C[C@@H](C)CN(CCCNC(=S)Nc2ccsc2C(=O)OC)[C@H](C)[C@@H](O)[C@]1(C)O.O=CO [Example 147]    -0.46
CC[C@H]1OC(=O)[C@H](C)[C@@H](O[C@H]2C[C@@](C)(OC)[C@@H](O)[C@H](C)O2)[C@H](C)[C@@H](O[C@@H]2O[C@H](C)C[C@H](N(C)C)[C@H]2O)[C@](C)(O)C[C@@H](C)CN(CCCNC(=O)NCc2ccco2)[C@H](C)[C@@H](O)[C@]1(C)O [Example 57]    -0.34

In plain terms, CC[C@H]1OC(=O)[C@H](C)[C@@H](O[C@H]2C[C@@](C)(OC)[C@@H](O)[C@H](C)O2)[C@H](C)[C@@H](O[C@@H]2O[C@H](C)C[C@H](N(C)C)[C@H]2O)[C@](C)(O)C[C@@H](C)CN(CCCNC(=S)Nc2ccc([N+](=O)[O-])cc2)[C@H](C)[C@@H](O)[C@]1(C)O [Example 105] has a documented log10(IC50) of -1.63

In plain terms, CC[C@H]1OC(=O)[C@H](C)[C@@H](O[C@H]2C[C@@](C)(OC)[C@@H](O)[C@H](C)O2)[C@H](C)[C@@H](O[C@@H]2O[C@H](C)C[C@H](N(C)C)[C@H]2O)[C@](C)(O)C[C@@H](C)CN(CCCNC(=O)Nc2ccc3c(c2)CCC3)[C@H](C)[C@@H](O)[C@]1(C)O [Example 64] has a documented log10(IC50) of -1.04

###

System: Plasmodium falciparum TM91C235
Assay: In vitro antimalarial [3H]-hypoxanthine incorporation assay, TM91C235
Type: cell-based
Settings: Plasmodium falciparum; P. falciparum TM91C235 (multiple drug resistant isolate), 72 hours exposure
Measured IC50 by item
Numbers only; they are read as µg/mL.

CC[C@H]1OC(=O)[C@H](C)[C@@H](O[C@H]2C[C@@](C)(OC)[C@@H](O)[C@H](C)O2)[C@H](C)[C@@H](O[C@@H]2O[C@H](C)C[C@H](N(C)C)[C@H]2O)[C@](C)(O)C[C@@H](C)CN(CCCNC(=O)Nc2ccccc2-c2ccccc2)[C@H](C)[C@@H](O)[C@]1(C)O.O=CO    0.142

In plain terms, CC[C@H]1OC(=O)[C@H](C)[C@@H](O[C@H]2C[C@@](C)(OC)[C@@H](O)[C@H](C)O2)[C@H](C)[C@@H](O[C@@H]2O[C@H](C)C[C@H](N(C)C)[C@H]2O)[C@](C)(O)C[C@@H](C)CN(CCCNC(=O)Nc2ccc(C)cc2)[C@H](C)[C@@H](O)[C@]1(C)O has a documented IC50 of 0.128

###

Measured IC50 D6 by item
System: Plasmodium falciparum clone CDC/Sierra Leone I (D-6)
Assay: In vitro antimalarial [3H]-hypoxanthine incorporation serial dilution assay, D6
Format: cell-based
Settings: P. falciparum D6, 72 hours exposure
Numbers only; they are read as mg/L.

Field: example entries. Status: answers known.
CCC1OC(=O)C(C)C(OC2CC(C)(OC)C(O)C(C)O2)C(C)C(OC2OC(C)CC(N(C)C)C2O)C(C)(O)CC(C)CN(CCNC(=O)Nc2ccc3ccccc3c2)C(C)C(O)C1(C)O (stereo not shown)    0.0713
CCC1OC(=O)C(C)C(OC2CC(C)(OC)C(O)C(C)O2)C(C)C(OC2OC(C)CC(N(C)C)C2O)C(C)(O)CC(C)CN(CCNC(=O)NCc2ccccc2)C(C)C(O)C1(C)O (stereo not shown)    0.292
CCC1OC(=O)C(C)C(OC2CC(C)(OC)C(O)C(C)O2)C(C)C(OC2OC(C)CC(N(C)C)C2O)C(C)(O)CC(C)CN(CCNC(=O)Nc2cccc3ccccc23)C(C)C(O)C1(C)O (stereo not shown)    0.1344

Let us move to another entry and its IC50 D6.
In plain terms, CC[C@H]1OC(=O)[C@H](C)[C@@H](O[C@H]2C[C@@](C)(OC)[C@@H](O)[C@H](C)O2)[C@H](C)[C@@H](O[C@@H]2O[C@H](C)C[C@H](N(C)C)[C@H]2O)[C@](C)(O)C[C@@H](C)CN(CCCN(CCC(N)=O)C(=O)Nc2ccc(Cl)cc2Cl)[C@H](C)[C@@H](O)[C@]1(C)O has a documented IC50 D6 of 0.2266

###

Test system: Plasmodium falciparum TM91C235
Experiment: In vitro antimalarial [3H]-hypoxanthine incorporation assay, TM91C235
Assay type: cell-based
Conditions: Plasmodium falciparum; P. falciparum TM91C235 (multiple drug resistant isolate), 72 hours exposure
outcome.measure: IC50
Answer as a quantity: numeral, then unit.

CC[C@H]1OC(=O)[C@H](C)[C@@H](O[C@H]2C[C@@](C)(OC)[C@@H](O)[C@H](C)O2)[C@H](C)[C@@H](O[C@@H]2O[C@H](C)C[C@H](N(C)C)[C@H]2O)[C@](C)(O)C[C@@H](C)CN(CCCNC(=S)NCCCSC)[C@H](C)[C@@H](O)[C@]1(C)O    0.332 µg/mL

In plain terms, CC[C@H]1OC(=O)[C@H](C)[C@@H](O[C@H]2C[C@@](C)(OC)[C@@H](O)[C@H](C)O2)[C@H](C)[C@@H](O[C@@H]2O[C@H](C)C[C@H](N(C)C)[C@H]2O)[C@](C)(O)C[C@@H](C)CN(CCCNC(=O)Nc2ccc3c(c2)OCO3)[C@H](C)[C@@H](O)[C@]1(C)O has a documented IC50 of 0.254 µg/mL

In plain terms, CC[C@H]1OC(=O)[C@H](C)[C@@H](O[C@H]2C[C@@](C)(OC)[C@@H](O)[C@H](C)O2)[C@H](C)[C@@H](O[C@@H]2O[C@H](C)C[C@H](N(C)C)[C@H]2O)[C@](C)(O)C[C@@H](C)CN(CCCNC(=O)Nc2ccc(CC#N)cc2)[C@H](C)[C@@H](O)[C@]1(C)O has a documented IC50 of 0.542 µg/mL

In plain terms, CC[C@H]1OC(=O)[C@H](C)[C@@H](O[C@H]2C[C@@](C)(OC)[C@@H](O)[C@H](C)O2)[C@H](C)[C@@H](O[C@@H]2O[C@H](C)C[C@H](N(C)C)[C@H]2O)[C@](C)(O)C[C@@H](C)CN(CCCNC(=S)Nc2ccc(Cl)c(Cl)c2)[C@H](C)[C@@H](O)[C@]1(C)O has a documented IC50 of 0.0839 µg/mL

All figures here come from patent US20080200404A1.
